molecular target: T1, hPD-1-Fc (human, UniProt Q15116 25-167); assay: SPR, Exp. 1
T1 construct: domain: IgV domain; also called human PD-1-Fc; not shown: human IgG1 Fc
T1 sequence (Q15116 25-167 limits assumed): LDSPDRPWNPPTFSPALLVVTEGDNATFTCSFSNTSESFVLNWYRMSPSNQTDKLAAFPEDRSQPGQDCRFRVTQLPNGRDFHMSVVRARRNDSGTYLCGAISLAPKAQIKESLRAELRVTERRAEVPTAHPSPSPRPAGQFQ
pKd: −log10 of the molar value.
Experimental readout: pKd

Example results:
{"Binder": "38B2 (antibody, V domains shown, 24H9 derivative, IgG; also called 780_54; hPD1 Ab (38B2)) VH: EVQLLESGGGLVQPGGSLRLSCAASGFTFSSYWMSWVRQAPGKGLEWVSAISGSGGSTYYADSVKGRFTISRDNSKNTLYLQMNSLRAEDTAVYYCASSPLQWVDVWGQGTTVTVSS VL: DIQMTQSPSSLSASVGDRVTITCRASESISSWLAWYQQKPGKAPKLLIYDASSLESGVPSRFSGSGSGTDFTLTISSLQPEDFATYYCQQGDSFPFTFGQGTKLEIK", "Result": "> 10.48"}
{"Binder": "38A6 (antibody, V domains shown, also called 780_46) VH: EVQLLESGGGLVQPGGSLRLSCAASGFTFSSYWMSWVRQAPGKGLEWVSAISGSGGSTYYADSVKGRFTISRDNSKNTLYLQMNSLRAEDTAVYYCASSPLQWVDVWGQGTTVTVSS VL: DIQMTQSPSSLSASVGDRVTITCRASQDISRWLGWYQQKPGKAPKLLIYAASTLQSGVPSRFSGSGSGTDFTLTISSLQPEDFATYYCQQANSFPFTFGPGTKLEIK", "Result": "> 9.73"}
{"Binder": "33C4 (antibody, V domains shown, also called 780_39) VH: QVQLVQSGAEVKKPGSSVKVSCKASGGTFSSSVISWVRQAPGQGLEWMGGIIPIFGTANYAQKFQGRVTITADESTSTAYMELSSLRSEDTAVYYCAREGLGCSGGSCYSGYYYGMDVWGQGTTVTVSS VL: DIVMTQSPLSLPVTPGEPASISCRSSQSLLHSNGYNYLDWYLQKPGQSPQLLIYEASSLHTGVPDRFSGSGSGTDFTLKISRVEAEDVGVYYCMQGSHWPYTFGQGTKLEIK", "Result": "> 10.66"}

Continue with the next binder.
Incoming: Quick one: pKd for 31B1 (antibody, V domains shown, also called 780_38; 33B1 and 31B2 (apparent misprints)) VH: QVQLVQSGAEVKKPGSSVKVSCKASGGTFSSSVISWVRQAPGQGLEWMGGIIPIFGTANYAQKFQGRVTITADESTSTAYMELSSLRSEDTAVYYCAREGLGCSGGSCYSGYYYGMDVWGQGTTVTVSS VL: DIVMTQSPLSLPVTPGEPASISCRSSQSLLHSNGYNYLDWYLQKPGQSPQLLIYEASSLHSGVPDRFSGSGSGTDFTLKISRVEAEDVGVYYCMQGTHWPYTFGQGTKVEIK ?
Outgoing: > 10.85
